- experimental target: T1, full-length WNV NS1 (strain 382-99), wild type, expressed in HEK293T cells (West Nile virus, New York 1999, strain …, UniProt Q9Q6P4)
- T1 construct: also called WT NS1; WT WNV NS1; source: HEK293T, transfected (pFM-A1.2), on fixed cells
- T1 sequence (Q9Q6P4 792-1143): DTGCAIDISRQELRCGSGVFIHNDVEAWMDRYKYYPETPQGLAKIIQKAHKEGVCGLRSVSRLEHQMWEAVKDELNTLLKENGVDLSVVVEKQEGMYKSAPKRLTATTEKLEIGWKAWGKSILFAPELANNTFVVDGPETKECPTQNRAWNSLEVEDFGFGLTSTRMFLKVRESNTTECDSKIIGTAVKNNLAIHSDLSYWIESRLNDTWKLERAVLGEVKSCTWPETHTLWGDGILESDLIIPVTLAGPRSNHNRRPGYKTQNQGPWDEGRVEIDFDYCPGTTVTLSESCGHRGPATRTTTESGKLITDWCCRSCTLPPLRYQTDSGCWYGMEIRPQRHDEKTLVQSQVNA
- assay comment: flow cytometry on cells
- test settings: one partner purified
endpoint label: binding result

WNV-98 (antibody, V domains shown) VH: QVQLVESGGGLVKPGGSLRLSCAASGFPFTNYYMSWIRQAPGKGLEWISYITSRGDTAYYADSVKGRFTVARDNSKNSLYLQMNSLRAEDTAMYFCARGGDDYADSWGQGILVTVSS VL: EIVLTQSPATLPLSPGERATLSCRASQSINTNLAWYQQKPGQAPRLLIYETSHRASAIPARFSGSGSGTDFTLKISSLEPEDLAIYYCQQYRNWPQTFGQGTRLEIK = binds
WNV-96 (antibody, V domains shown, also called IgG1-WT variant of WNV-96) VH: QVQLVQSGAEVKKPGASVKVSCRPSGYIFTNYYIEWVRQAPGQGLEWMGIINPSGGKTTYAQKFQGRVTMTSDTSTSTVYMELSSLRSDDTAVYYCARDGNGSDYWGQGTRVTVSS VL: DVQMTQSPSSLSASVGDRVTITCRASQNINNYLNWYQQKPGRAPKLLIYATSNLESGVPSRFSGSRSGADFTLTISSLQPEDFASYYCQQSYNAPRTFGHGTKVEIK = binds
WNV-116 (antibody, V domains shown) VH: QMQLVESGGGVVQPGRSLRLSCVASGFNFKTYVMNWVRQAPGKGLEWVAVILSDGDNKYYADSVKGRFTISRDNSKNTLFLQMDSLRADDTAVYYCTRVPHCSTSSCYKEYYNYYMDVWGKGTTVSVSS VL: EIVLTQSPATLSLSPGDRATLSCRASQSLSTSLAWYQQKPGQAPRLVIYDASNRAADIPARFSGSGSGTDFTLTIRSLEPEDFAVYYCQQRSNWPPRYTFGQGTKLEIK = binds
WNV-100 (antibody, V domains shown) VH: QLQLQESGSGLVKPSQTLSLTCTVSGDSIGSGGFSWTWIRQPPGKGLEWIGNIYHSGGTYYNPSLKSRVTISIDNSTHFSLKLSSVTAADSAVYYCARDRGMVIKRRPWSYGLDVWGQGTTVSVSS VL: QSVLTQPPSASGTPGQRVTISCSGGSSNIGSNSVSWYQHLPRTAPKLLIYSNNQRSSGVPDRFSGSKSGTSASLAISGLQSDDEADYYCAAWDDSLHVLFGGGTKLTVL = binds

Req: # input binder: WNV-113 (antibody, V domains shown) VH: QITLKESGPTLVKPTQTLTVTCTFSGFSLNTNGVGVGWIRQPPGKALEWLALIYWDDVKRYRPSLESRLTITKDTSKNQVVLTMTDMDPVDTGTYYCAHRFHSRGWYTFDYWGQGTRVTVSS VL: SYVLTQPPSVSVAPGQTARITCGGNNIGGKNVHWYQQKPGQAPVLVVYDDNDRPSGIPERFSGSNSGNTATLTISRVEAGDEADFYCQVWDSNSEHVVFGGGTKLTVL ; wanted: its binding result
Resp: binds
